test: viability rescue of complex I mutant cybrids, primary screen, cell-based, galactose medium, ATP luminescence (AID 1645843); details: complex I mutant cybrid cells, 72 h, stronger effect = higher value;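 further: positive z means more ATP and so rescue of galactose-driven cybrid death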
z-score vs 0.3: at or above is Satisfied, below is Not satisfied.

Exercise: Evaluate CC12CCC(=O)C=C1CCC1C2CCC2(C)C1CCC2(O)C(=O)CO (stereo not given) : z-score at minimum 0.3?
Key: Not satisfied

Exercise: Record: Nc1ncnc2c1ncn2[C@@H]1O[C@H](CO)C[C@H]1O
Key: Not satisfied

Exercise: Record: CC1CC2C3CCC4=CC(=O)C=CC4(C)[C@@]3(Cl)C(O)CC2(C)C1(O)C(=O)CO (stereo not given in full)
Key: Satisfied

Exercise: Record: CO[C@H](C(=O)[C@@H](O)[C@@H](C)O)[C@@H]1Cc2cc3cc(O[C@H]4C[C@@H](O[C@H]5C[C@@H](O)[C@H](O)[C@@H](C)O5)[C@@H](O)[C@@H](C)O4)c(C)c(O)c3c(O)c2C(=O)[C@H]1O[C@H]1C[C@@H](O[C@H]2C[C@@H](O[C@H]3C[C@](C)(O)[C@H](O)[C@@H](C)O3)[C@H](O)[C@@H](C)O2)[C@H](O)[C@@H](C)O1
Key: Not satisfied

Now consider a different compound.
Exercise: Evaluate COc1ccc(-c2oc3cc(OC)ccc3c2C(=O)c2ccc(C#N)cc2)cc1 : z-score at minimum 0.3?
Key: Satisfied

###

This section presents compounds with their documented inhibition values.
biological target: L-lactate dehydrogenase (Plasmodium falciparum (isolate CDC / Honduras)); assay: PfLDH activity inhibition – cell lysate, 3D7 strain, counter-screen for P. falciparum growth inhibition project (AID 2304);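 further: 0% = vehicle and 100% = reference inhibitor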; conditions: P. falciparum 3D7 crude extract, LDH APAD/NBT absorbance; at 2 µM; stronger effect = higher value
Your answer should be a plain number; it is taken to be in %.

Worked cases, answers included:
Exercise: Request body: readout inhibition, system L-lactate dehydrogenase (Plasmodium falciparum (isolate CDC / Honduras)), query Cc1cnc(NCC2CCCCC2)nc1NCC(=O)Nc1ccccc1 . Return the value.
Key: 0

Exercise: Record: Nc1ncc(-c2ccc(Br)cc2)c(N)n1
Key: 0

Exercise: Record: CN1CCN(Cc2cccc(Nc3nccc(Nc4ccc(Oc5ccccc5)cc4)n3)c2)CC1
Key: 2

Exercise: Record: COc1ccc(N=C(N)Nc2ccccc2)nc1Cc1ccccc1
Key: -6

Exercise: Record: COc1cc(Cc2cnc3nc(N)nc(N)c3c2C)cc(OC)c1OC
Key: 1

Exercise: Record: Nc1ccc(-c2cc(Cl)cc(Cl)c2)cc1-c1cc2ccccc2[nH]1
Key: 0

Exercise: Record: CCOc1cc(C)ccc1C1CCN(CCCCNC(=O)c2cnc(-c3ccc(C(F)(F)F)cc3)[nH]2)CC1
Key: 2

Exercise: Record: COc1ccc2nccc([C@@H](O)CN3CCC(NC(=O)c4cccc(-c5cc(C)no5)c4)CC3)c2c1
Key: 1

Exercise: Record: COCCOc1ccc(Nc2nccc(-c3c(-c4cccc(NC(=O)c5c(F)cccc5F)c4)nn4ccccc34)n2)cc1Cl
Key: 4

Exercise: Record: CC(C)Cn1cc2c(ccc3nc(N)nc(N)c32)n1
Key: -2

---
Exercise: Request body: readout inhibition, system L-lactate dehydrogenase (Plasmodium falciparum (isolate CDC / Honduras)), query CN(C(=O)c1cc2c(-c3cncnc3)cccc2[nH]1)c1ccccc1 . Return the value.
Key: 0

Exercise: Record: COc1ccc2ncc(F)c(NC(=O)C3CCC(NCc4cc5c(F)cccc5[nH]4)CC3)c2n1 (stereo not given)
Key: -1

Exercise: Record: CCC(CC)OC(=O)C(C)c1cccc(C(=O)c2ccccc2)c1 (stereo not given)
Key: 6

Exercise: Record: Nc1nc(N)c2c(ccc3c2cnn3Cc2cccnc2)n1
Key: 0

Exercise: Record: Cc1[nH]c(C)c(-c2ccc(Sc3ccc(Cl)cc3)cc2)c(=O)c1Br
Key: 0

###

This section presents compounds with their documented log fold change Tl+ flux values.
system: R275C/beta4; test: modulators of BK channel variants, profiling panel, selectivity assay, cell-based, U2OS BacMam, thallium flux, beta subunits (AID 1259406); settings: at 30 µM;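 further: initial slope of Thallos dye fluorescence rise after thallium is added; log ratio against the mean of 0.3% DMSO vehicle wells on the same plate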
Please state the value as a number alone, without comment.

Worked cases, answers included:
Exercise: Which log fold change Tl+ flux value is on record for O=C(O)c1cccc(CSc2cccs2)c1 ?
Key: 0.0269

Exercise: Record: CN1CCN(S(=O)(=O)c2ccc(CNC(=O)c3ccccc3)s2)CC1
Key: 0.00386

Exercise: Record: CC(C)n1c(SCC(=O)c2ccccc2)nc2cc(Cl)ccc21
Key: -0.0424

Exercise: Record: C1=CC=CC(C2C=CC=CC=C2)C=C1
Key: 0.0377

Exercise: Record: CC(COc1ccccc1Cc1ccccc1)N1CCCCC1 (stereo unspecified)
Key: -0.00829

We now examine a further compound.
Exercise: Which log fold change Tl+ flux value is on record for COC(=O)c1cc(C)nc(Sc2n[nH]c(-c3cc(Cl)cc(Cl)c3)n2)n1 ?
Key: 0.0071

###

target: L-lactate dehydrogenase (Plasmodium falciparum (isolate CDC / Honduras)); assay: PfLDH activity inhibition – cell lysate, 3D7 strain, counter-screen for P. falciparum growth inhibition project (AID 2304);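 further: 0% = vehicle and 100% = reference inhibitor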; conditions: P. falciparum 3D7 crude extract, LDH APAD/NBT absorbance; at 2 µM; stronger effect = higher value
The source made the active and inactive calls. The rule behind the calls is not given here.
This section presents compounds with their documented inhibition values.

Exercise: Which inhibition value is on record for O=c1[nH]ccc2nc(N[C@@H]3CCNC3)nc(Nc3cc(Cl)cc(Cl)c3)c12 ?
Key: -2% (inactive)

Exercise: Record: Cc1c(Cl)cccc1S(=O)(=O)N1CCCCC(c2ccc(C(F)(F)F)cc2)=N1
Key: 5% (inactive)

Exercise: Record: CNC(=O)c1ccccc1Nc1nc(Nc2ccc(N3CCN(C)CC3)nc2)ncc1C
Key: 4% (inactive)

Exercise: Record: CN(C)c1ccc(CN2CCCC(CNC(=O)c3ccc(-c4cccc(C(F)(F)F)c4)s3)C2)cc1 (centres undefined)
Key: 0% (inactive)

Exercise: Record: N=C(N)c1ccc(Nc2nccc(Nc3nc(-c4ccccc4)cs3)n2)cc1
Key: -8% (inactive)

Exercise: Record: O=S(=O)(NCCN1CCCC1)c1cccc(-c2cccc(CNCc3ccsc3)c2)c1
Key: 6% (inactive)

Exercise: Record: CC(Oc1ccc(Cl)cc1)C(=O)Nc1cc(C(F)(F)F)ccc1N1CCOCC1 (centres undefined)
Key: -6% (inactive)

Exercise: Record: CCCCCCCc1c(C)[nH]c2ccc(F)cc2c1=O
Key: -5% (inactive)

Exercise: Record: Oc1ccc(-c2ccccc2)cc1CNC1CCCCC1
Key: -3% (inactive)

###

experiment: survival rescue of mitochondrial mutant cells in low glucose, primary screen, MELAS cybrids, Rieske KO mouse fibroblasts, CellTiter-Glo (AID 1508586); conditions: Rieske KO mouse fibroblast survival, CellTiter-Glo 72 h;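 further: z relative to plate mean and SD of compound and empty wells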
quantity-measured: z-score
Please state the value as a number alone, without comment.

Exercise: Which z-score value is on record for Cc1ccc(-c2nn(C(C)(C)C)c3ncnc(N)c23)cc1 ?
Key: -0.238

---
Exercise: Which z-score value is on record for CC(C)N1CCN(c2ccc(OC[C@H]3CO[C@](Cn4cncn4)(c4ccc(Cl)cc4Cl)O3)cc2)CC1 ?
Key: 0.124

Exercise: Record: Cn1cc(C2=C(c3ccc(Cl)cc3Cl)C(=O)NC2=O)c2ccccc21
Key: 0.82

###

assay: SU-DIPG-VI glioma cell viability, MIPE4.0 library, CellTiter-Glo luminescence, qHTS (AID 1347066); settings: CellTiter-Glo ATP luminescence;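 further: cells exposed to compound for 48 hours before readout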
Inconclusive results are not listed. Active and inactive are the calls of the source. No cut-off is given here; in the data, nearly all actives have AC50 up to about 30 µM. Numbered stars: 1 amine (or outer) side, 2 acyl side, 3 side chain; on linkers, the order of the positions; unused ones are H or OH. Bridge positions count the residues as written; N and C are the ends. Square brackets hold non-standard residues; d marks the D form. Peptide text beside a SMILES is read from it. I, II: the chains in the order shown. Actinocin(9to1) = Cc1c2oc3c(C)ccc(C(=O)[*:1])c3nc-2c(C(=O)[*:2])c(N)c1=O; NMeV = CN[CH](C(=O)O)C(C)C; Sar = CNCC(=O)O
Parameter call: string, one of true (active), false (inactive)

The examples below pair each entry with its known result.
Exercise: Tell me the assay call for N#C/C(=C(/N)Sc1ccc(N)cc1)c1ccccc1C(F)(F)F please.
Key: false

Exercise: Record: CCN(c1ccccc1)c1cc(NC)[n+](C)c(C)n1
Key: false

Exercise: Record: Cc1cnc(C(=O)NCCc2ccc(S(=O)(=O)NC(=O)NC3CCCCC3)cc2)cn1
Key: false

Exercise: Record: O=C(O)C[C@H](O)C[C@H](O)/C=C/c1c(C2CC2)nc2ccccc2c1-c1ccc(F)cc1
Key: false

Exercise: Record: CN1[C@@H]2CCC[C@H]1CC(NC(=O)c1nn(C)c3ccccc13)C2 (stereo partly drawn)
Key: false

Exercise: Record: CC(C)(Sc1ccc(CCN(CCCCC2CCCCC2)C(=O)NC2CCCCC2)cc1)C(=O)O
Key: false

---
Exercise: Tell me the assay call for CC1(C)CCC[C@]2(C)[C@H]3CC(=O)O[C@]3(C)CC[C@@H]12 please.
Key: false

Exercise: Record: COc1cccc2c1C(=O)c1c(O)c3c(c(O)c1C2=O)C[C@@](O)(C(=O)CO)C[C@@H]3O[C@H]1C[C@H](N)[C@@H](O)[C@H](C)O1
Key: true

Exercise: Record: COc1cc([C@@H]2c3cc4c(cc3[C@@H](O[C@@H]3O[C@@H]5CO[C@@H](C)O[C@H]5[C@H](O)[C@H]3O)[C@H]3COC(=O)[C@H]23)OCO4)cc(OC)c1O
Key: false

Exercise: Record: O=C(O)C1CCCN(CCC=C(c2ccccc2)c2ccccc2)C1 (stereo not drawn)
Key: false

Exercise: Record: O=C1c2c(O)cc(O)cc2O[C@H](c2ccc(O)c(O)c2)[C@H]1O
Key: false

Exercise: Record: CC(C)=CCC/C(C)=C/CC/C(C)=C/CC/C(C)=C/CC/C(C)=C/CC/C(C)=C/CC/C(C)=C/CC/C(C)=C/CC/C(C)=C/CO
Key: false

Exercise: Record: Cc1c2oc3c(C)ccc(C(=O)NC4C(=O)NC(C(C)C)C(=O)N5CCCC5C(=O)N(C)CC(=O)N(C)C(C(C)C)C(=O)OC4C)c3nc-2c(C(=O)NC2C(=O)NC(C(C)C)C(=O)N3CCCC3C(=O)N(C)CC(=O)N(C)C(C(C)C)C(=O)OC2C)c(N)c1=O (stereo not drawn) (I: TVP[Sar][NMeV] / II: TVP[Sar][NMeV]; ester I:1-I:C, II:1-II:C; linker I:N-II:N via Actinocin(9to1); configuration not given here)
Key: false

src = PubChem BioAssay
